- Test system: IL-1β, human whole blood
- assayInfo: Whole blood assay for IL-1β production
- Format: cell-based
- conditionContext: Homo sapiens, * = values obtained upon reassay; read-out: Whole human blood IC50
- Text: The whole blood assay is a simple method for measuring the production of IL-1b (or other cytokines) and the activity of potential inhibitors. […] Prepare drug dilutions in sterile pyrogen-free saline by serial dilution. A dilution series which brackets the apparent Ki for a test compound determined in an ICE inhibition assay is generally used for the primary compound screen. […]
recordedEndpoint: IC50

Some entries whose results are on file:
Lookup result for O=C[C@H](CC(=O)O)NC(=O)CN1C(=O)[C@@H](NC(=O)c2ccccc2)CN(C(=O)NCc2ccccc2)c2ccccc21 [Compound 605p] ; measured IC50: > 20 µM

Lookup result for `CC(C)(C)OC(=O)C[C@@H](C=O)NC(=O)[C@@H]1CCCN2C(=O)CC[C@H](NC(=O)c3ccccc3)C(=O)N12` ; measured IC50: > 20 µM

Continue with the next molecule.
Lookup result for O=C[C@H](CC(=O)O)NC(=O)CN1C(=O)[C@@H](NC(=O)c2ccccc2)CN(C(=O)CCc2ccccc2)c2ccccc21 [Compound 605a] ; measured IC50: > 20 µM
